Experiment: Hydrolysis of tertiary ethyl ester (2) and formation of its degradation product (7) at pH 12, 37°C (HPLC)
Assay type: physicochemical
Set-up: dose or concentration left out as unconfirmed
Details: 0.01 N NaOH pH at 37°C, read-out: t 1/2, hydrolysis (disappearance) of tertiary ethyl ester (2)
Method: The mobile phase used for the separation of compound (2) and its degradation product, the half ester (7) consisted of 32% MeCN, 0.01M KH₂PO₄, 0.004M 1-octanesulfonic acid sodium salt and 0.1% acetic acid. At flow rate of 1.5 ml/min (2) and (7) have retention times of 9 min and 4.6 min, respectively. […]
value type: half-life (min)
Express it in min; write the number only.

Query: Give a short answer stating reported half-life for CCOC(=O)C(C(=O)OC1CC2CCC(C1)N2C)c1ccccc1 (racemic) .
Response: 4.19

----------
experiment: Enzymatic hydrolytic cleavage rates in human plasma at 37°C (HPLC); assay type: in vitro ADME
value type: kobsd HUMAN PLASMA, 37°C

Query: Give a short answer stating reported kobsd HUMAN PLASMA, 37°C for CN1C2CCC1CC(OC(=O)C(C(=O)OC1CCCCC1)c1ccccc1)C2 (racemic) .
Response: 4.44 ± 0.4 x 10^-5 min^-1

Query: Give a short answer stating reported kobsd HUMAN PLASMA, 37°C for C[N+]1(C)C2CCC1CC(OC(=O)C(C(=O)OC1CCCCC1)c1ccccc1)C2 (racemic) .
Response: 6.31 ± 0.8 x 10^-5 min^-1

Query: Give a short answer stating reported kobsd HUMAN PLASMA, 37°C for CCOC(=O)C(C(=O)OC1CC2CCC(C1)N2C)c1ccccc1 (racemic) .
Response: 15.0 ± 0.3 x 10^-5 min^-1

Query: Give a short answer stating reported kobsd HUMAN PLASMA, 37°C for CC(C)OC(=O)C(C(=O)OC1CC2CCC(C1)N2C)c1ccccc1 (racemic) .
Response: 6.27 ± 0.3 x 10^-5 min^-1

----------
experiment: Enzymatic hydrolysis in rat liver homogenate at 37°C (HPLC); format: in vitro ADME, Sprague-Dawley rats; details: rat, liver homogenate, pH 7.4, 20% rat liver homogenate, pH 7.4, 37°C; read-out: t 1/2 in liver homogenate
value type: half-life (min)
Express it in min; write the number only.

Query: Give a short answer stating reported half-life for CCOC(=O)C(C(=O)OC1CC2CCC(C1)N2C)c1ccccc1 (racemic) [Compound 2] .
Response: 3.48

Query: Give a short answer stating reported half-life for CN1C2CCC1CC(OC(=O)C(C(=O)OC1CCCCC1)c1ccccc1)C2 (racemic) [Compound 4] .
Response: 18.7

Query: Give a short answer stating reported half-life for CC(C)OC(=O)C(C(=O)OC1CC2CCC(C1)N2C)c1ccccc1 (racemic) [Compound 3] .
Response: 7.12

Query: Give a short answer stating reported half-life for C[N+]1(C)C2CCC1CC(OC(=O)C(C(=O)OC1CCCCC1)c1ccccc1)C2 (racemic) [Compound 6] .
Response: 66.8

----------
assay: Hydrolysis of tropanyl hydrogen phenyl malonate (7) to the dibasic acid (8) at pH 12, 37°C (HPLC); assay type: physicochemical; settings: 0.01 n naoh; 0.01 N sodium hydroxide, pH 12 at 37°C; read-out: t 1/2, hydrolysis (disappearance) of (7)
value type: half-life
Returns: string containing the number followed by the unit.

Query: Give a short answer stating reported half-life for CN1C2CCC1CC(OC(=O)C(C(=O)O)c1ccccc1)C2 (racemic) .
Response: 5.52 h
